- Test system: NIH-3T3 cells
- Assay notes: Hoechst/propidium iodide cell death assay in NIH-3T3
- Type: cell-based
- Condition: Mus musculus, NIH3T3, 24 h, 20 µM, 24 h; read-out: Percentage of cell death % 24h NIH3t3
Where a name gives a salt, the structure may show the parent alone.
Please provide measured cytotoxicity at 20 µM for the entries that follow.
Answers are plain numbers, in %.

Below: 6 compounds and their reported cytotoxicity at 20 µM.
| Compound | Measurement unit | Reported measurement |
| --- | --- | --- |
| Clc1ccc(C(Cn2ccnc2)OCc2c(Cl)cccc2Cl)c(Cl)c1 (stereo not shown) [Isoconazole nitrate] | % | 8.57 |
| CCOc1nc2cccc(C(=O)OC(C)OC(=O)OC3CCCCC3)c2n1Cc1ccc(-c2ccccc2-c2nnn[nH]2)cc1 (stereo not shown) | % | 12.2 |
| C[C@@H](O[C@H]1OCCN(Cc2n[nH]c(=O)[nH]2)[C@H]1c1ccc(F)cc1)c1cc(C(F)(F)F)cc(C(F)(F)F)c1 [Aprepitant] | % | 1.15 |
| COc1cc2ncnc(Nc3ccc(F)c(Cl)c3)c2cc1NC(=O)/C=C/CN1CCCCC1 | % | 86.8 |
| O=C1Cc2cc(CCN3CCN(c4nsc5ccccc45)CC3)c(Cl)cc2N1 [Ziprasidone hydrochloride monohydrate] | % | 1.15 |
| C[C@@H](NCCCc1cccc(C(F)(F)F)c1)c1cccc2ccccc12 | % | 75.5 |

# evaluate next
Endpoint output: cytotoxicity at 20 µM of CC(C)=CCC/C(C)=C/CC/C(C)=C/CSc1ccccc1C(=O)O . Value? 3.71

* * *

- Tested on: HT-29 cells
- Assay notes: Hoechst/propidium iodide cell death assay in HT-29
- Format: cell-based, human
- Condition: Homo sapiens, HT-29, 24 h, 20 µM, 24 h; read-out: Percentage of cell death % 24h HT-29
Where a name gives a salt, the structure may show the parent alone.
Observable: cytotoxicity at 20 µM (%)
Give bare numbers, in %.

| Compound | Observable | Reported measurement |
| --- | --- | --- |
| O=C(NC1CCN(CCCCC2(C(=O)NCC(F)(F)F)c3ccccc3-c3ccccc32)CC1)c1ccccc1-c1ccc(C(F)(F)F)cc1 [Lomitapide] | cytotoxicity at 20 µM | 29.5 |

Provide cytotoxicity at 20 µM for all items below, preserving their order.
1. C(=C\c1ccccc1)/CN1CCN(C(c2ccccc2)c2ccccc2)CC1
2. CCN(CC)CCOc1ccc(C(=C(Cl)c2ccccc2)c2ccccc2)cc1 [Clomiphene citrate]
3. Cc1cc(Nc2cc(CN3CCOCC3)c3nc(C)c(Cc4ccc(Cl)cc4F)n3n2)n[nH]1

1: 0.381; 2: 1.46; 3: 6.62

Respectfully, I request cytotoxicity at 20 µM for each entry included below.
1. CCOC(=O)C1=C(C)NC(C)=C(C(=O)OC)C1c1cccc(Cl)c1Cl (centres unmarked)
2. Clc1ccc(COC(Cn2ccnc2)c2ccc(Cl)cc2Cl)cc1 (centres unmarked) [Econazole nitrate]

1. 3.81
2. 8.57

Each of the following entries comes with a recorded value; kindly state cytotoxicity at 20 µM for each.
1. CC(C)(C)c1cc(C(C)(C)C)c(NC(=O)c2c[nH]c3ccccc3c2=O)cc1O
2. Cc1cc(Nc2ncc(Cl)c(Nc3ccccc3S(=O)(=O)C(C)C)n2)c(OC(C)C)cc1C1CCNCC1

1: 9.35; 2: 92.1

* * *

- Tested on: HT-29 cells
- Assay notes: Hoechst/propidium iodide cell death assay in HT-29
- Type: cell-based, human
- Condition: Homo sapiens, HT-29, 48 h, HT-29; 48h; 20 μM; read-out: Percentage of cell death % 48h, HT-29
Structures can show the parent of a compound that is named as a salt.
I'd be grateful if you could share measured cytotoxicity at 20 µM for these entries.
One number for each entry, in %.

// solved cases for cytotoxicity at 20 µM follow
| Molecule | Experimental target | Measurement unit | cytotoxicity at 20 µM |
| --- | --- | --- | --- |
| CC1(C)[C@@H](O)CC[C@]2(C)[C@H]3C(=O)C=C4[C@@H]5C[C@@](C)(C(=O)O)CC[C@]5(C)CC[C@@]4(C)[C@]3(C)CC[C@@H]12 | HT-29 cells | % | 1.61 |
| CC1(C)Cc2c(-c3ccccc3)c(-c3ccc(Cl)cc3)c(CC(=O)O)n2C1 | HT-29 cells | % | 3.98 |
| CSc1ccc2c(c1)N(CCC1CCCCN1C)c1ccccc1S2 (stereo not drawn) [Thioridazine HCl] | HT-29 cells | % | 16.7 |
| CC(C)=CCC/C(C)=C/CC/C(C)=C/CSc1ccccc1C(=O)O | HT-29 cells | % | 1.28 |
| O=C1Cc2cc(CCN3CCN(c4nsc5ccccc45)CC3)c(Cl)cc2N1 [Ziprasidone hydrochloride monohydrate] | HT-29 cells | % | 1.87 |

Could you report cytotoxicity at 20 µM for every entry in the following list?
1. CN1CCN(c2ccc(C(=O)Nc3n[nH]c4ccc(Cc5cc(F)cc(F)c5)cc34)c(NC3CCOCC3)c2)CC1
2. Clc1ccc(C(Cn2ccnc2)OCc2csc3c(Cl)cccc23)c(Cl)c1 (stereo not drawn) [Sertaconazole nitrate]
3. OC(CNCC(O)C1CCc2cc(F)ccc2O1)C1CCc2cc(F)ccc2O1 (stereo not drawn)

80.4
4.64
67.3

* * *

- System: Caco-2 cells
- Type: cell-based
- Condition: 20 µM, 24 h
Structures can show the parent of a compound that is named as a salt.
For each entry below, report its Percentage of cell death % 24h CACO-2 value.
One number for each entry, in %.

Look over these answered cases.
| Molecule | Reported measurement |
| --- | --- |
| COc1cc2nccc(Oc3ccc(NC(=O)Nc4cc(C)on4)c(Cl)c3)c2cc1OC | 5.391 |
| Cl.Cl.Fc1ccc(C(c2ccc(F)cc2)N2CCN(C/C=C/c3ccccc3)CC2)cc1 [Flunarizine 2HCl] | 3.891 |
| CCOC(=O)N1CCC(=C2c3ccc(Cl)cc3CCc3cccnc32)CC1 | 3.76 |

# per-item lookup of Percentage of cell death % 24h CACO-2; items listed below
1. Cc1ccc(C(=O)N(CCCN)[C@@H](c2nc3cc(Cl)ccc3c(=O)n2Cc2ccccc2)C(C)C)cc1 [Ispinesib (SB-715992), Ispinesib]
2. Cn1ncc(Cl)c1-c1cc(C(=O)N[C@H](CN)Cc2cccc(F)c2)sc1Cl
3. C[C@@H](NCCCc1cccc(C(F)(F)F)c1)c1cccc2ccccc12 [Cinacalcet HCl]

[86.1725, 23.3726, 64.4357]

Please give Percentage of cell death % 24h CACO-2 for each item listed below.
1. CCOC(=O)C1=C(C)NC(C)=C(C(=O)OCC)C1c1ccccc1/C=C/C(=O)OC(C)(C)C
2. COc1cc(C(=O)O)ccc1NC(=O)[C@@H]1N[C@@H](CC(C)(C)C)[C@](C#N)(c2ccc(Cl)cc2F)[C@H]1c1cccc(Cl)c1F

4.66
4.882

* * *

Can you tell me Kd for the items I'm about to list?
- Experimental target: His-14-3-3ζ (Homo sapiens)
- Construct: made in house; host or cells: Escherichia coli BL21 LOBSTR-RIL
- Sequence (P63104 whole entry): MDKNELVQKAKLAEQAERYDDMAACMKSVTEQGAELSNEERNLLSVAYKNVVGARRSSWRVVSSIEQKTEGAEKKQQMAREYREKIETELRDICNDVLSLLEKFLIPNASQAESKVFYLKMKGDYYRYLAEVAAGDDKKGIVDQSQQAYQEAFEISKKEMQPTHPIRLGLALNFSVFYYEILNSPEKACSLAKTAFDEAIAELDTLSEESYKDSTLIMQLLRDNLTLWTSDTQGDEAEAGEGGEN
- Assay notes: Surface plasmon resonance (SPR) on immobilized His-14-3-3ζ
- Format: binding
- Condition: SPR, immobilized His-14-3-3ζ, single-cycle kinetics, 1% DMSO
Answers are plain numbers, in nM.

| Molecule | Experimental target | Kd / nM |
| --- | --- | --- |
| OC1(c2ccc(Cl)c(C(F)(F)F)c2)CCN(CCCC(c2ccc(F)cc2)c2ccc(F)cc2)CC1 | His-14-3-3ζ (Homo sapiens) | 1350 |

Hello, I would appreciate it if you could give Kd for each entry below.
1. CCCCCCOC(=O)c1ccc(Nc2c([N+](=O)[O-])cc(C(=O)O)cc2[N+](=O)[O-])cc1
2. CC(C)(C)c1ccc(C(O)CCCN2CCC(C(O)(c3ccccc3)c3ccccc3)CC2)cc1 (centres unmarked)
3. O=C(NC1CCN(CCCCC2(C(=O)NCC(F)(F)F)c3ccccc3-c3ccccc32)CC1)c1ccccc1-c1ccc(C(F)(F)F)cc1 [Lomitapide]
4. CCCCCCCCc1ccc(CCC(N)(CO)CO)cc1

6320
2960
890
10600

* * *

- System: NIH-3T3 cells
- Assay notes: Hoechst/propidium iodide cell death assay in NIH-3T3
- Assay type: cell-based
- Condition: Mus musculus, NIH3T3, 24 h, read-out: Percentage of cell death % 24h NIH3t3
Each record gets a class by cytotoxicity at 20 µM: small value = under 50%, mid value = from 50% up to 70%, large value = 70% and over

Worked examples, 5 molecules total:
| Molecule | Discrete label |
| --- | --- |
| C=CCc1ccc(O)c(-c2cc(CC=C)ccc2O)c1 | small value |
| CC(C)(C)CC(C)(C)c1ccc(OCCOCC[N+](C)(C)Cc2ccccc2)cc1 [Benzethonium Chloride] | mid value |
| CCCCCCCCCCCCCCCC[n+]1ccccc1 [Cetylpyridinium Chloride] | large value |
| Cc1ccc(C(=O)N(CCCN)[C@@H](c2nc3cc(Cl)ccc3c(=O)n2Cc2ccccc2)C(C)C)cc1 [Ispinesib (SB-715992), Ispinesib] | large value |
| CCCCCCCCCCCCCCCC[N+](C)(C)C [Cetrimonium Bromide (CTAB), Cetrimonium Bromide] | large value |

Could you place Oc1cc(Cl)ccc1Oc1ccc(Cl)cc1Cl in its proper category? Many thanks. mid value

Band assignment needed for Cc1ccc(C(=O)Nc2ccc(CN3CCN(C)CC3)c(C(F)(F)F)c2)cc1C#Cc1cnc2cccnn12 please. large value
